Form field: IC50 (one value per entry).
System: SARS-CoV-2
Test: microbe, parasite or virus in culture
Conditions: Severe acute respiratory syndrome coronavirus 2, Vero C1008, 48 h, read-out: pIC50 (converted)

See these solved cases before continuing.
-- ask What value of measured IC50 is listed for C[C@]12CC[C@@H]3c4ccc(O)cc4CC[C@H]3[C@@H]1CC[C@@H]2OC(=O)CCC1CCCC1 [ESTRADIOL CYPIONATE] ?
-- reply > 20 µM

-- ask Field entry: CCC(CCC(C)C1CCC2C3CC=C4CC(OC(C)=O)CCC4(C)C3CCC12C)C(C)C (stereo not drawn)
-- reply > 20 µM

-- ask Consider next the compound "O=C(O)[C@]1(O)C[C@H](O)[C@@H](O)[C@@H](O)C1" in the same way.
-- reply > 20 µM

-- ask Likewise for "O=C(O)Cc1cn(-c2ccccc2)nc1-c1ccc(Cl)cc1" ?
-- reply > 20 µM

-- ask Next: NC(=O)OCCCc1ccccc1 [PHENPROBAMATE]
-- reply > 20 µM

-- ask Another compound to check: "CNCc1ccc(C)c(NC(=O)c2ccc(Nc3nc(-c4ccccc4)c4ccccc4n3)cc2)c1"
-- reply 2.95 µM

Field: next compound
-- ask Reported IC50, compound "N[C@H](CO)C(=O)O" : ____
-- reply > 20 µM

----------
Test system: SARS-CoV-2
Experiment: microbe, parasite or virus in culture
Settings: Severe acute respiratory syndrome coronavirus 2, Vero C1008, 48 h
Each entry below carries its recorded IC50.

Look over these answered cases.
-- ask What does the record list as IC50 for CN(C)CC(CN1c2ccccc2Sc2ccccc21)N(C)C (stereo unspecified) ?
-- reply > 20 µM

-- ask // repeat for "C=C(C)C(=O)OCCCCCCCCCCCC" and report
-- reply > 20 µM

-- ask Also, "C[C@]1(O)CC[C@H]2[C@@H]3CC[C@@]45O[C@]4(C)C(O)=C(C#N)C[C@]5(C)[C@H]3CC[C@@]21C" please.
-- reply > 20 µM

-- ask Again, but for "NC(=O)c1ncn([C@@H]2O[C@H](CO)[C@@H](O)[C@H]2O)n1"
-- reply > 50.1 µM

-- ask # repeat for O=C(O)CNC(=O)C(CS)Cc1ccccc1 (stereo unspecified)
-- reply > 20 µM

Further cases:
-- ask Endpoint output: IC50 of COc1ccc2[nH]c([S+]([O-])Cc3ncc(C)c(OC)c3C)nc2c1 (stereo unspecified) . Value?
-- reply > 20 µM

-- ask Try the compound "CC1(C)Oc2ccc(C#N)cc2[C@@H](N2CCCC2=O)[C@@H]1O"
-- reply > 20 µM

----------
Tested on: SARS-CoV-2
Test: microbe, parasite or virus in culture
Details: Severe acute respiratory syndrome coronavirus 2, Vero C1008, 48 h, read-out: pIC50 (converted)
VALUE_TYPE: IC50

-- ask Value lookup for IC50; key = CC(C(=O)O)c1ccc(N2Cc3ccccc3C2=O)cc1 (stereo not given)
-- reply > 20 µM

-- ask Also CC1(C)CC(=O)N(CCCCN2CCN(c3ncccn3)CC2)C(=O)C1 [GEPIRONE] ?
-- reply > 20 µM

-- ask Next: CCOCCOc1ccccc1C(N)=O [ETOSALAMIDE]
-- reply > 20 µM

-- ask Another compound to check: "CCCC(=O)O"
-- reply > 20 µM

-- ask Also CCOc1ccc(NC(=O)CC(C)O)cc1 (stereo not given) , if possible.
-- reply > 20 µM

---
-- ask Field request: IC50 | item: "Oc1ccc2c3c1O[C@H]1[C@@H](O)CC[C@@]4(O)[C@@H](C2)N(CC2CCC2)CC[C@]314"
-- reply > 50.1 µM

-- ask Try this compound next: "O=c1c(O)c(-c2ccc(O)cc2O)oc2cc(O)cc(O)c12"
-- reply > 20 µM

-- ask What do you get for CC1CNc2c(cccc2S(=O)(=O)N[C@@H](CCCNC(=N)N)C(=O)N2CC[C@@H](C)C[C@@H]2C(=O)O)C1 (stereo not given in full) ?
-- reply > 20 µM

-- ask Note, next up: "COc1nccnc1NS(=O)(=O)c1ccc(N)cc1"
-- reply > 20 µM

-- ask What do you have for "Cn1cnc2[nH]c(=O)[nH]c(=O)c21" ?
-- reply > 20 µM

-- ask Next entry: "COC(=O)Nc1nc2ccc(C(=O)C3CC3)cc2[nH]1"
-- reply > 20 µM

-- ask # iterate: CC(CCC(=O)O)C1CCC2C3C(=O)CC4CC(=O)CCC4(C)C3CC(=O)C12C (stereo not given)
-- reply > 20 µM

Where do these numbers come from? They come from ChEMBL document CHEMBL4651402.
